Assignment: determine reported IC50 for the given compounds.
# System name: aromatase (Homo sapiens)
# Sequence (P11511 1-503): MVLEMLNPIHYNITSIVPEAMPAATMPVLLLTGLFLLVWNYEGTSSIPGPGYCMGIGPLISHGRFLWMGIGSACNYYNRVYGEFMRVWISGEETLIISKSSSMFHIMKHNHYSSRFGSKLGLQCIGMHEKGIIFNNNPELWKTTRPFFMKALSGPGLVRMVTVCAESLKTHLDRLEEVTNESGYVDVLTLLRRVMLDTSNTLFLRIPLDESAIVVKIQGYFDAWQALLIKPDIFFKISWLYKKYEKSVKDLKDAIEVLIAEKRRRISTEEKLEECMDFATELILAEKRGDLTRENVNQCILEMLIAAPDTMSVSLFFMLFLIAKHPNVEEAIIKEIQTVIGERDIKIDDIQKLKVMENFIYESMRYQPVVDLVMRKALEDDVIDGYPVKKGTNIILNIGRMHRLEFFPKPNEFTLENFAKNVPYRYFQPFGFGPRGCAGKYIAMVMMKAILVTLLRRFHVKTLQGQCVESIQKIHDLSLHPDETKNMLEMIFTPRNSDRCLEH
Answers are plain numbers, in µM.

{"columns": ["Smiles record", "Display unit", "IC50"],
 "data": [
  ["CS[C@@H]1C[C@H]2[C@@H]3CCOC[C@@]3(C)CC[C@@H]2[C@@]2(C)C=CC(=O)C=C12", "µM", 0.8]
]}

--- query ---
Request the reported IC50 associated with CC(=O)S[C@H]1C[C@@H]2[C@H](CC[C@]3(C)C(=O)OCC[C@@H]23)[C@@]2(C)C=CC(=O)C=C12 1.6
